Recorded values, source PubChem BioAssay (NCI).

Measured TGI accompanies every entry in the list below.
Test system: SK-MEL-2 melanoma
ASSAY_COMMENT: NCI tumour cell line growth inhibition, 48 h

>  <MOLECULE>
CC(C)CCCC(C)C1CCC2C3CC([N+](=O)[O-])=C4CC(O)CCC4(C)C3CCC12C (stereo unspecified)

>  <VALUE_PREFIX>
=

>  <TGI / µM>
29

$$$$
>  <MOLECULE>
O=c1c2cc(Br)ccc2nc(CNc2ccccc2)n1-c1ccccc1

>  <VALUE_PREFIX>
=

>  <TGI / µM>
62.3

$$$$
>  <MOLECULE>
O=C(/C=C(\[O-])c1ccccc1)CCCCCCC(=O)/C=C(\[O-])c1ccccc1.O=C(/C=C(\[O-])c1ccccc1)CCCCCCC(=O)/C=C(\[O-])c1ccccc1.O=C(/C=C(\[O-])c1ccccc1)CCCCCCC(=O)/C=C(\[O-])c1ccccc1.[Y+3].[Y+3]

>  <VALUE_PREFIX>
>

>  <TGI / µM>
50

$$$$
>  <MOLECULE>
COC(=O)/C=C1\C(CO[Si](C)(C)C(C)(C)C)OC(n2ccc(=O)[nH]c2=O)C1O (stereo unspecified)

>  <VALUE_PREFIX>
=

>  <TGI / µM>
21.1

$$$$
>  <MOLECULE>
CC[C@]12C=CCN3CC[C@@]4(c5ccc(OC)cc5N(C)[C@H]4[C@@](O)(C(=O)OC)[C@@H]1OC(=O)CCCN1CCN(CCCC(=O)O[C@@H]4[C@]5(CC)C=CCN6CC[C@@]7(c8ccc(OC)cc8N(C)[C@H]7[C@@]4(O)C(=O)OC)[C@@H]65)CC1)[C@@H]32

>  <VALUE_PREFIX>
=

>  <TGI / µM>
3.59

$$$$
>  <MOLECULE>
COc1ccc(OC)c(/C=C2/C(=O)N=C(NC(C)=O)N2C)c1

>  <VALUE_PREFIX>
>

>  <TGI / µM>
100

$$$$
>  <MOLECULE>
CCCCCC(=O)OC[n+]1cccc(-c2c(COC(=O)NC(C)C)c(COC(=O)NC(C)C)c3n2CCC3)c1

>  <VALUE_PREFIX>
=

>  <TGI / µM>
94.7

$$$$
>  <MOLECULE>
O=C1Nc2ccc(Cl)cc2/C1=N/c1nc(-c2ccc(Cl)cc2)cs1

>  <VALUE_PREFIX>
=

>  <TGI / µM>
4.85

$$$$
>  <MOLECULE>
CC1C(OS(=O)(=O)c2ccc3[nH]c(=S)sc3c2)CC2C3(C)CCC2(C(C)C(=O)O)C(O)C13 (stereo unspecified)

>  <VALUE_PREFIX>
=

>  <TGI / µM>
81.7

$$$$
>  <MOLECULE>
O=C(O)c1ccccc1/C=C1\Cc2cc3c(cc2C1=O)CCC3

>  <VALUE_PREFIX>
=

>  <TGI / µM>
55.4

$$$$
>  <MOLECULE>
O=C1NC(=O)N(S(=O)(=O)c2cc(C(=O)Nc3ccc(Cl)cc3)c(Cl)cc2S)S(=O)(=O)N1

>  <VALUE_PREFIX>
=

>  <TGI / µM>
66.1

$$$$
>  <MOLECULE>
Cc1cccc(C)c1NC(=O)C(=O)CC(=O)c1sc(Nc2c(C)cccc2C)nc1C

>  <VALUE_PREFIX>
>

>  <TGI / µM>
100

$$$$
>  <MOLECULE>
COC(=O)C1=C(OC)C(=P2(c3ccccc3)CC(c3ccccc3)=C2c2ccccc2)C(C(=O)OC)=C1C(=O)OC (stereo unspecified)

>  <VALUE_PREFIX>
>

>  <TGI / µM>
100

$$$$
>  <MOLECULE>
COc1ccc([C@@H]2[C@@H](Oc3ccccc3)C(=O)N2c2cc(OC)c(OC)c(OC)c2)cc1F

>  <VALUE_PREFIX>
>

>  <TGI / µM>
100

$$$$
>  <MOLECULE>
COC(=O)N/N=C(\C)c1sc(-c2nc(C)c(/C(C)=N/NC(=O)OC)s2)nc1C

>  <VALUE_PREFIX>
>

>  <TGI / µM>
100

$$$$
>  <MOLECULE>
CCOc1ccc(NC(=O)C(=O)C(/C(=N/N)C(=O)OC)c2nc3ccc([N+](=O)[O-])cc3[nH]c2=O)cc1 (stereo unspecified)

>  <VALUE_PREFIX>
>

>  <TGI / µM>
100

$$$$
